These data points were gathered from the Deep4Chem optical property database.

- assayName: photoluminescence quantum yield (fraction); solvent given as SMILES
- testSettings: in ClC(Cl)Cl
Please enter met where photoluminescence quantum yield is greater than or equal to 0.6, and not met where it is lower.

Prompt line: Could you tell me if the measured photoluminescence quantum yield of COc1cc(N(c2ccccc2)c2ccccc2)ccc1C=C(C#N)C#N reaches 0.6 or more?
Response line: not met

Prompt line: Could you tell me if the measured photoluminescence quantum yield of COc1ccc(/C=C/C=C/C=C/c2ccc([N+](=O)[O-])cc2)cc1 reaches 0.6 or more?
Response line: not met

Prompt line: Could you tell me if the measured photoluminescence quantum yield of CN(CC(O)c1cccc(O)c1)c1ccc([N+](=O)[O-])c(C2CC(c3cccc4ccccc34)=NN2c2ccccc2)c1 (stereo not drawn) reaches 0.6 or more?
Response line: not met

Prompt line: Could you tell me if the measured photoluminescence quantum yield of F[B-]1(F)n2c(c(-c3ccccc3)c3c2C2=Cc4ccccc4OC2CC3)C=C2C(c3ccccc3)=C3CCC4Oc5ccccc5C=C4C3=[N+]21 (stereo not drawn) reaches 0.6 or more?
Response line: not met

Prompt line: Could you tell me if the measured photoluminescence quantum yield of CCCCCCN1C(=O)c2cccc3c(-c4cc5ccccc5s4)ccc(c23)C1=O reaches 0.6 or more?
Response line: not met

Prompt line: Could you tell me if the measured photoluminescence quantum yield of CCCCCCCCOc1ccc(-c2c3c4n(c(-c5ccc(OCCCCCCCC)cc5)c3c3n2[B-](c2ccccc2)(c2ccccc2)[n+]2c(ccc5cc(C(C)(C)C)ccc52)C=3C#N)[B-](c2ccccc2)(c2ccccc2)[n+]2c(ccc3cc(C(C)(C)C)ccc32)C=4C#N)cc1 reaches 0.6 or more?
Response line: not met

Prompt line: Could you tell me if the measured photoluminescence quantum yield of Cc1ccc(C(=O)/N=c2\oc3cccc4c5c(-c6ccccc6)oc6cccc(c(c2-c2ccccc2)c34)c65)cc1 reaches 0.6 or more?
Response line: not met

Prompt line: Could you tell me if the measured photoluminescence quantum yield of CCC1=C(C)C(=O)n2c1cc1c(C)cc(C)n1c2=O reaches 0.6 or more?
Response line: met

Prompt line: Could you tell me if the measured photoluminescence quantum yield of O=S(=O)(/N=c1\oc2cccc3c4c(-c5ccccc5)oc5cccc(c(c1-c1ccccc1)c23)c54)C(F)(F)F reaches 0.6 or more?
Response line: met

Prompt line: Could you tell me if the measured photoluminescence quantum yield of COc1cc2c(cc1/C=C/C1=CC(=C(C#N)C#N)CC(C)(C)C1)c1ccccc1n2C reaches 0.6 or more?
Response line: not met

Prompt line: Could you tell me if the measured photoluminescence quantum yield of COc1ccc(C#Cc2ccc(C#Cc3ccc(C#Cc4ccccc4C#N)cc3C#N)cc2C#N)cc1 reaches 0.6 or more?
Response line: met

Prompt line: Could you tell me if the measured photoluminescence quantum yield of CN(C)c1ccc2nc(/C=C/c3ccccc3)c(=O)oc2c1 reaches 0.6 or more?
Response line: met

Prompt line: Could you tell me if the measured photoluminescence quantum yield of c1ccc(-c2nc(-c3ccc(N4CCCC4)cc3)cc(-c3ccc4ccccc4c3)n2)cc1 reaches 0.6 or more?
Response line: not met

Prompt line: Could you tell me if the measured photoluminescence quantum yield of Clc1cc(Cl)c([C](c2c(Cl)cc(Cl)cc2Cl)c2c(Cl)cc(-n3c4ccccc4c4ccccc43)cc2Cl)c(Cl)c1 reaches 0.6 or more?
Response line: not met

Prompt line: Could you tell me if the measured photoluminescence quantum yield of N#Cc1ccc(Oc2ccc3c4c(cccc24)C(=O)N(CCO)C3=O)cc1 reaches 0.6 or more?
Response line: not met

Prompt line: Could you tell me if the measured photoluminescence quantum yield of CCCCc1c2c(nc3ccccc13)-c1cc3c(cc1CC2)-c1nc2ccccc2c(CCCC)c1CC3 reaches 0.6 or more?
Response line: met

Prompt line: Could you tell me if the measured photoluminescence quantum yield of Nc1nc(/C=C/c2ccc(N(c3ccccc3)c3ccccc3)cc2)cc(/C=C/c2ccc(N(c3ccccc3)c3ccccc3)cc2)n1 reaches 0.6 or more?
Response line: met

Prompt line: Could you tell me if the measured photoluminescence quantum yield of c1ccc(-c2nc(-c3ccccc3)c(N(c3ccccc3)c3ccccc3)s2)cc1 reaches 0.6 or more?
Response line: not met

Prompt line: Could you tell me if the measured photoluminescence quantum yield of COc1cc2cc(OC)c(C#Cc3ccc([N+](=O)[O-])cc3)cc2cc1C#Cc1ccc([N+](=O)[O-])cc1 reaches 0.6 or more?
Response line: not met

Prompt line: Could you tell me if the measured photoluminescence quantum yield of COc1ccc2c(c1)CCc1c(-c3ccccc3)c3n(c1-2)[B-](F)(F)[N+]1=C2C(=C(c4ccccc4)C1=N3)CCc1ccccc12 reaches 0.6 or more?
Response line: not met

Prompt line: Could you tell me if the measured photoluminescence quantum yield of CC1(C)CCc2c(c3ccccc3c3nc4c5c(c6ccccc6c4nc23)OC(C)(C)CC5)O1 reaches 0.6 or more?
Response line: not met

Prompt line: Could you tell me if the measured photoluminescence quantum yield of CC1=[N+]2C(=C(c3ccc(N4CCCCC4)cc3)c3ccc(C)n3[B-]2(F)F)C=C1 reaches 0.6 or more?
Response line: not met

Prompt line: Could you tell me if the measured photoluminescence quantum yield of CCCCCCN1C(=O)C(c2ccc(-n3c4ccccc4c4ccccc43)cc2)=C(c2ccc(-n3c4ccccc4c4ccccc43)cc2)C1=O reaches 0.6 or more?
Response line: not met

Prompt line: Could you tell me if the measured photoluminescence quantum yield of F[B-]1(F)n2cccc2C(c2ccccc2)=C2C=CC(c3cccc(OC4=[N+]5C(=C(c6ccccc6)c6cc(Br)c(-c7ccc[nH]7)n6[B-]5(F)F)C=C4Br)c3)=[N+]21 reaches 0.6 or more?
Response line: not met

Prompt line: Could you tell me if the measured photoluminescence quantum yield of CCOC(=O)/C(C#N)=C/c1cc2c3ccccc3n(C)c2cc1OC reaches 0.6 or more?
Response line: not met

Prompt line: Could you tell me if the measured photoluminescence quantum yield of COc1cc2cc(OC)c(-c3ccc([N+](=O)[O-])cc3)cc2cc1-c1ccc([N+](=O)[O-])cc1 reaches 0.6 or more?
Response line: not met

Prompt line: Could you tell me if the measured photoluminescence quantum yield of CCOC(=O)/C(C#N)=C\c1ccc2c(c1)c1ccccc1n2-c1ccc(OC)cc1 reaches 0.6 or more?
Response line: not met

Prompt line: Could you tell me if the measured photoluminescence quantum yield of CC1=CC(C)=[N+]2C1=C(C1=C(C)C3=C(C)c4c(C)cc(C)n4[B-](F)(F)[N+]3=C1C)c1c(C)cc(C)n1[B-]2(F)F reaches 0.6 or more?
Response line: not met

Prompt line: Could you tell me if the measured photoluminescence quantum yield of CCCCCCCCC1(CCCCCCCC)c2cc(-c3ccc([Si](C)(C)C)cc3)ccc2-c2ccc(-c3ccc([Si](C)(C)C)cc3)cc21 reaches 0.6 or more?
Response line: met

Prompt line: Could you tell me if the measured photoluminescence quantum yield of O=C1c2ccc3c4ccc5c6c(ccc(c7ccc(c2c37)C(=O)N1c1ccncc1)c64)C(=O)N(c1ccncc1)C5=O reaches 0.6 or more?
Response line: met

Prompt line: Could you tell me if the measured photoluminescence quantum yield of COc1ccc2cc3c(C)cc(=O)oc3cc2c1 reaches 0.6 or more?
Response line: not met

Prompt line: Could you tell me if the measured photoluminescence quantum yield of COc1ccc2c(c1)SCC1=C(c3ccccc3)C3=Nc4c(-c5ccccc5)c5c(n4[B-](F)(F)[N+]3=C12)-c1ccc(OC)cc1SC5 reaches 0.6 or more?
Response line: not met

----------
- assayName: photoluminescence quantum yield (fraction); solvent given as SMILES
- testSettings: in ClC(Cl)Cl
Please enter true where photoluminescence quantum yield is greater than or equal to 0.3, and false where it is lower.

Prompt line: Could you tell me if the measured photoluminescence quantum yield of CCn1c2ccccc2sc2c(C#N)c3[nH]c4ccccc4sc3c(C#N)c21 reaches 0.3 or more?
Response line: true

Prompt line: Could you tell me if the measured photoluminescence quantum yield of COc1ccc(-c2nc(C)cc(-c3ccc(-n4c5ccccc5c5ccccc54)cc3)n2)cc1 reaches 0.3 or more?
Response line: true

Prompt line: Could you tell me if the measured photoluminescence quantum yield of c1cc2ccc1CCCc1cc3c(cc1CCCc1ccc(c4nsnc14)CCC3)CCC2 reaches 0.3 or more?
Response line: false

Prompt line: Could you tell me if the measured photoluminescence quantum yield of Cn1cc(/C=C/C(=O)c2ccccc2)c2ccccc21 reaches 0.3 or more?
Response line: false

Prompt line: Could you tell me if the measured photoluminescence quantum yield of CN(C)CCN(Cc1c2ccccc2cc2ccccc12)c1ccc([N+](=O)[O-])cn1 reaches 0.3 or more?
Response line: false

Prompt line: Could you tell me if the measured photoluminescence quantum yield of CCCCCCOc1ccc(C#Cc2ccc(C#CC#Cc3ccc(C#Cc4ccc(OCCCCCC)c(OCCCCCC)c4)c4nsnc34)c3nsnc23)cc1OCCCCCC reaches 0.3 or more?
Response line: true

Prompt line: Could you tell me if the measured photoluminescence quantum yield of c1ccc(-c2ncc3ccccn23)cc1 reaches 0.3 or more?
Response line: false

Prompt line: Could you tell me if the measured photoluminescence quantum yield of CCOC(CN1C(=O)C2=C(c3cccs3)N(CC(OCC)OCC)C(=O)C2=C1c1cccs1)OCC reaches 0.3 or more?
Response line: true

Prompt line: Could you tell me if the measured photoluminescence quantum yield of COc1ccc(C2=C3C(C)=CC(C)=[N+]3[B-](F)(F)n3c(/C=C/c4ccc(N(C)C)cc4)cc(C)c32)cc1 reaches 0.3 or more?
Response line: true
